system: HCT116; assay: AC50 cell viability (CellTiter-Glo); higher = less potent; conditions: 48 h
Some compounds, each annotated with its measured AC50 cell viability.
Your answer should be a plain number; it is taken to be in µM.

- SMILES_RECORD: "Clc1ccccc1C(c1ccccc1)(c1ccccc1)n1ccnc1"
  TGT: "HCT116"
  AC50 cell viability, µM: 20.9
- SMILES_RECORD: "Cc1cccc(-c2n[nH]cc2-c2ccc(F)c(-c3cnn(CCO)c3)c2)n1"
  TGT: "HCT116"
  AC50 cell viability, µM: 26.3
- SMILES_RECORD: "CCN1CCN(Cc2ccc(-c3cc4c(N[C@H](C)c5ccccc5)ncnc4[nH]3)cc2)CC1"
  TGT: "HCT116"
  AC50 cell viability, µM: 16.6

Continue with the compound presented below.
Query: Param readout= AC50 cell viability; system= HCT116; entry= `CC(C)(C)OC(=O)Nc1ccc(-c2cc(C(=O)NCCCCCCC(=O)NO)no2)cc1` ; returns value.
Reply: 1.86

---

system: HCT116; assay: efficacy (fitted maximal change in viability relative to DMSO control); higher = less cytotoxic (negative = loss of viability); settings: 48 h
Counter-ions that a name gives are not always drawn.
Hi, to clarify the labels: YES covers efficacy from -40% upward, NO covers anything below -40%.

Solved cases (8 shown):
- MOLECULE: "c1ccc(CNCc2ccc(CN3CCCNCCNCCCNCC3)cc2)nc1"
  CATEGORY: "YES"
- MOLECULE: "CCOC(=O)[C@H](CCc1ccccc1)N[C@H]1CS[C@H](c2cccs2)CN(CC(=O)O)C1=O.Cl [Temocapril hydrochloride]"
  CATEGORY: "YES"
- MOLECULE: "CN[C@@H](C)C(=O)N[C@@H]1C(=O)N(Cc2c(C)ccc3ccccc23)c2ccc(C#N)cc2N(C(C)=O)[C@H]1C"
  CATEGORY: "YES"
- MOLECULE: "CNC(=O)c1cc(Oc2ccc(NC(=O)Nc3cc(C(C)(C)C)nn3-c3ccc4ncccc4c3)c(F)c2)ccn1"
  CATEGORY: "NO"
- MOLECULE: "NC[C@H]1O[C@H](O[C@H]2[C@H](O)[C@@H](O[C@H]3O[C@H](CO)[C@@H](O)[C@H](N)[C@H]3O)[C@H](N)C[C@@H]2N)[C@H](N)C[C@@H]1O"
  CATEGORY: "YES"
- MOLECULE: "Nc1ncnc2c1c(COc1cccc(Cl)c1)nn2C1CCOCC1"
  CATEGORY: "YES"
- MOLECULE: "C=CC(=O)Nc1cccc(Oc2nc(Nc3ccc(N4CCN(C)CC4)cc3OC)ncc2Cl)c1"
  CATEGORY: "NO"
- MOLECULE: "CCc1cc(C(N)=O)ccc1-n1nc(C(C)C)c2c(-n3cnc(-c4cnn(C)c4)c3)ccnc21"
  CATEGORY: "NO"

Query: Reported efficacy reaches at least -40% for `O=C(Nc1ccnc(NC(=O)C2CC2)c1)c1c(Cl)cccc1Cl` ?
Reply: NO

Query: Reported efficacy reaches at least -40% for `COC1=CC(=CC(=C1CN(C)C)OC)\C2=C\N(C)C(=O)C3=C2C=CN=C3` ?
Reply: YES

Query: Reported efficacy reaches at least -40% for `O=C(Nc1cccnc1)N1CCC(Cc2cccc(Oc3ccc(C(F)(F)F)cn3)c2)CC1` ?
Reply: NO

Query: Reported efficacy reaches at least -40% for CCOC(=O)c1ccc(OC(=O)CCCCCNC(=N)N)cc1 [Gabexate mesilate] ?
Reply: YES

Query: Reported efficacy reaches at least -40% for COc1ccc(Cc2nccc3cc(OC)c(OC)cc23)cc1OC [Papaverine hydrochloride] ?
Reply: NO

Query: Reported efficacy reaches at least -40% for `C=CC(=O)Nc1cccc(Oc2nc(Nc3ccc(N4CCN(C)CC4)c(F)c3)nc3[nH]ccc23)c1` ?
Reply: NO

Query: Reported efficacy reaches at least -40% for `C[C@H](NC(=O)c1sccc1OCc1ccc(Cl)cc1)c1ccccc1` ?
Reply: NO

---

system: HCT116; assay: AC50 cell viability (CellTiter-Glo); higher = less potent; conditions: 48 h
Some compounds, each annotated with its measured AC50 cell viability.
Your answer should be a plain number; it is taken to be in nM.

Past entries and their recorded results:
- COMPOUND: "CCCC1(CCC)CCC2(CCN(CCCN(CC)CC)C2)CC1"
  AC50 cell viability / nM: 2630
- COMPOUND: "COc1ncc(-c2ccc3nccc(-c4ccnnc4)c3c2)cc1N[S+](=O)([O-])c1ccc(F)cc1F"
  AC50 cell viability / nM: 105
- COMPOUND: "O=C(O)C1(Cc2cccc(Nc3nccs3)n2)CCC(Oc2cccc(Cl)c2F)CC1 (stereo not drawn)"
  AC50 cell viability / nM: 833
- COMPOUND: "COc1ccc(-c2cc(C(O)C3CCCCN3)c3ccccc3n2)cc1 (stereo not drawn)"
  AC50 cell viability / nM: 4680

Query: Item `C=CC(=O)N1CCC(CNc2ncnc(N)c2-c2ccc(Oc3ccccc3)cc2)CC1` has what recorded AC50 cell viability?
Reply: 4680

Query: Item `O=C(/C=C/c1ccc(CN(CCO)CCc2c[nH]c3ccccc23)cc1)NO` has what recorded AC50 cell viability?
Reply: 83.3

Query: Item `CNC(=O)Nc1ccc(-c2nc(N3CC4CCC(C3)O4)c3cnn(C4CCC5(CC4)OCCO5)c3n2)cc1` has what recorded AC50 cell viability?
Reply: 1180

Query: Item `c1ccc2c(Oc3nc(Nc4ccc(N5CCOCC5)cc4)c4ncn(C5CCCCC5)c4n3)cccc2c1` has what recorded AC50 cell viability?
Reply: 11800

---

system: HCT116; experiment: AC50 cell viability (CellTiter-Glo); higher = less potent; details: 48 h
So basically: is AC50 cell viability under 10 µM? Then fulfilled. Not under? Then not fulfilled.

Query: Record CNC(=O)c1cc(Oc2ccc(NC(=O)Nc3ccc(Cl)c(C(F)(F)F)c3)c(F)c2)ccn1 [Regorafenib] : is its AC50 cell viability strictly below 10 µM?
Reply: fulfilled

Query: Record [O-][n+]1cccc(-c2nc3c(Cl)cccc3cc2[C@@H](Nc2ncnc3cccnc23)C(F)(F)F)c1 [Seletalisib] : is its AC50 cell viability strictly below 10 µM?
Reply: not fulfilled

Query: Record COc1cc2nccc(Oc3ccc(NC(=O)Nc4cc(C)on4)c(Cl)c3)c2cc1OC [Tivozanib (AV-951)] : is its AC50 cell viability strictly below 10 µM?
Reply: not fulfilled

Query: Record CC(C)c1cnn2c(NCc3ccccc3)cc(N[C@@H](CO)[C@H](O)CO)nc12 [BS-194] : is its AC50 cell viability strictly below 10 µM?
Reply: fulfilled

Query: Record C[S+](=O)([O-])c1ccc([C@@H](CC2CCCC2)C(=O)Nc2nccs2)cc1 [Ro-28-1675] : is its AC50 cell viability strictly below 10 µM?
Reply: not fulfilled

Query: Record C=CC(=O)Nc1cccc(Oc2nc(Nc3ccc(N4CCN(C)CC4)cc3OC)ncc2Cl)c1 [WZ-4002] : is its AC50 cell viability strictly below 10 µM?
Reply: not fulfilled

Query: Record C=C1[C@H](OC(=O)/C=C(\C)CC)C[C@@H](C(C)C)[C@@H]2[C@H]([C@@H](C)OC(C)=O)C(=O)C[C@@H]12 [Tussilagone] : is its AC50 cell viability strictly below 10 µM?
Reply: not fulfilled

Query: Record `CC(C)CC(=O)Nc1n[nH]c2c1CN(C(=O)C1CCN(C)CC1)C2(C)C` : is its AC50 cell viability strictly below 10 µM?
Reply: fulfilled

Query: Record CCOC(=O)\C1=C(/C)N\C2=C(C1C3=CC=C(C=C3)C4=CC=CC=C4)\C(=O)CC(C)(C)C2 (stereo unspecified) [ITD-1] : is its AC50 cell viability strictly below 10 µM?
Reply: not fulfilled

Query: Record COc1cc(CCc2cc(NC(=O)c3ccc(N4C[C@@H](C)N[C@@H](C)C4)cc3)n[nH]2)cc(OC)c1 [AZD-4547] : is its AC50 cell viability strictly below 10 µM?
Reply: not fulfilled

Query: Record Cn1cc(-c2cnn3c(N)c(Br)c(C4CCCNC4)nc23)cn1 (stereo unspecified) [MK-8776] : is its AC50 cell viability strictly below 10 µM?
Reply: not fulfilled

Query: Record CN1CCCN(C(=O)c2cccc(-c3ccc(/C=C4/C(=O)Nc5ccc(Cl)cc54)o3)c2)CC1 [CX-6258] : is its AC50 cell viability strictly below 10 µM?
Reply: fulfilled

Query: Record Cc1ccc(F)c(NC(=O)Nc2ccc(-c3cccc4[nH]nc(N)c34)cc2)c1 [Linifanib] : is its AC50 cell viability strictly below 10 µM?
Reply: fulfilled

Query: Record Nc1nc(N)c(N=O)c(OCC2CCCCC2)n1 [NU-6027] : is its AC50 cell viability strictly below 10 µM?
Reply: not fulfilled

Query: Record CNCCCOc1cc(F)c(-c2c(Cl)nc3ncnn3c2N[C@@H](C)C(F)(F)F)c(F)c1 [Cevipabulin] : is its AC50 cell viability strictly below 10 µM?
Reply: fulfilled

Query: Record `COc1ccc(CNC(=O)Nc2ncc([N+](=O)[O-])s2)cc1` : is its AC50 cell viability strictly below 10 µM?
Reply: not fulfilled

All values here come from the supplement of paper PMC10290057.
